Hello, the source for this data is patent US20210283212A1, in case you need it.

Biological target: human C5 protein (human, UniProt P01031 19-673; P01031 678-1676)
Test: cell-based or functional assay
Positions of bridges follow the written chain, without caps; N, C: chain ends. Non-standard residues stand in square brackets, D forms with d. Primed or numbered codes have the meaning given here. mXylyl(3) = bridging moiety between the two residues given in brackets; Trp(7-aza) = N[C@@H](Cc1c[nH]c2ncccc12)C(=O)O; hPhe = N[C@@H](CCc1ccccc1)C(=O)O; Phg = N[C@H](C(=O)O)c1ccccc1; Tle = CC(C)(C)[C@H](N)C(=O)O; NMeS = CN[C@@H](CO)C(=O)O; hCys = N[C@@H](CCS)C(=O)O; Nva = CCC[C@H](N)C(=O)O
readoutKind: Avg. IC50, human hemolysis assay

Below, each entry is followed by its recorded Avg. IC50, human hemolysis assay result.
{"columns": ["binder", "Avg. IC50, human hemolysis assay"],
 "data": [
  ["Ac-[Nva]CYNN[Tle]ECEYP[Phg][Tle]-NH2 (linker 2-8 via mXylyl(3)) [R3129]", "> 100 µM"],
  ["Ac-[Nva][hCys][Phg]T[Trp(7-aza)]EY[NMeS]HC[Nva]-NH2 (linker 2-10 via mXylyl(3)) [R3103]", "> 25 µM"]
]}

Please look at the following binder next.
Problem: # input binder: Ac-[Nva]C[Phg]T[Trp(7-aza)]E[hPhe][NMeS]AC[Nva]-NH2 (linker 2-10 via mXylyl(3)) [R3095] ; wanted: its Avg. IC50, human hemolysis assay
Result: > 50 µM
